System: human hepatocytes
Experiment: Hepatocyte intrinsic clearance assay (metabolic stability), human hepatocytes
Assay type: in vitro ADME
Settings: Human Hepatocytes; well stirred liver model, fu=1
Procedure: The liver is an important organ in the body for drug metabolism. This Example describes hepatocyte intrinsic clearance assays using both human and rat hepatocytes to evaluate the metabolic stability of the indole compounds disclosed herein. The parameters measured include t1/2 (half-life), CLint (intrinsic clearance), and EH (hepatic extraction ratio). […] The residual compound remaining (% R) was determined from LC-MS peak areas by comparison to the zero time point. […]
Returns one of condition met or condition not met; condition met when EH (hepatic extraction ratio) is >= 20%.

NC1(c2csc(C(=O)c3c[nH]c4cc(F)ccc34)n2)CC1 :: condition not met

IN: In plain terms: is recorded EH (hepatic extraction ratio) at least 20% for COC(=O)c1csc(C(=O)c2c[nH]c3ccccc23)n1 [ARI-001, ITE, reference compound] ?
OUT: condition met

IN: In plain terms: is recorded EH (hepatic extraction ratio) at least 20% for "CC[C@@H](N)c1csc(C(=O)c2c[nH]c3cc(F)ccc23)n1" ?
OUT: condition not met

IN: Given the entry "O=C(c1nc(C2(O)CC2)cs1)c1c[nH]c2cc(F)ccc12" , answer whether its EH (hepatic extraction ratio) meets or surpasses 20%.
OUT: condition met

IN: Please tell me: is the molecule "CCC(O)(CC)c1csc(C(=O)c2c[nH]c3cc(F)ccc23)n1" at or over 20% in terms of EH (hepatic extraction ratio)?
OUT: condition met

IN: Evaluate "CC(C)(O)c1csc(C(=O)c2c[nH]c3cc(F)ccc23)n1" : EH (hepatic extraction ratio) at minimum 20%?
OUT: condition met

IN: Determine whether this molecule has EH (hepatic extraction ratio) no lower than 20%: "CC[C@H](N)c1csc(C(=O)c2c[nH]c3cc(F)ccc23)n1"
OUT: condition not met

----------
Tested on: rat hepatocytes
Assay: Hepatocyte intrinsic clearance assay (metabolic stability), rat hepatocytes
Assay type: in vitro ADME
Conditions: Rat Hepatocytes; well stirred liver model, fu=1
If the reported EH (hepatic extraction ratio) equals or exceeds 60%, assign MET. If not, assign NOT MET.

Here's what some known entries look like.
CC[C@H](N)c1csc(C(=O)c2c[nH]c3ccc(F)cc23)n1 :: NOT MET
CC[C@@H](O)c1csc(C(=O)c2c[nH]c3ccc(F)cc23)n1 :: NOT MET
CC(C)(O)c1csc(C(=O)c2c[nH]c3cc(F)ccc23)n1 :: NOT MET
N[C@H](c1csc(C(=O)c2c[nH]c3ccccc23)n1)C(F)(F)F :: MET
CC[C@@H](N)c1csc(C(=O)c2c[nH]c3cc(F)ccc23)n1 :: NOT MET
N[C@H](c1csc(C(=O)c2c[nH]c3cc(F)ccc23)n1)C(F)(F)F :: MET

IN: Is the recorded value of EH (hepatic extraction ratio) equal to or greater than 60% for this compound? "CCC(O)(CC)c1csc(C(=O)c2c[nH]c3cc(F)ccc23)n1"
OUT: MET

IN: Decide: EH (hepatic extraction ratio) of "CC[C@H](N)c1csc(C(=O)c2c[nH]c3cc(F)ccc23)n1" >= 60%?
OUT: NOT MET

IN: Has "O=C(c1nc([C@H](O)C(F)(F)F)cs1)c1c[nH]c2cc(F)ccc12" a recorded EH (hepatic extraction ratio) greater than or equal to 60%?
OUT: NOT MET

IN: Reported EH (hepatic extraction ratio) at or above 60%? "CC[C@@H](O)c1nc(C(=O)c2c[nH]c3cc(F)ccc23)cs1"
OUT: NOT MET

IN: Check the entry NC(c1csc(C(=O)c2c[nH]c3ccccc23)n1)C(F)(F)F (centres unmarked) : does EH (hepatic extraction ratio) equal or exceed 60%?
OUT: NOT MET

IN: Could you please find out whether "O=C(c1nc(C2(O)CC2)cs1)c1c[nH]c2cc(F)ccc12" has EH (hepatic extraction ratio) that meets 60% or exceeds it?
OUT: NOT MET

IN: Kindly determine if EH (hepatic extraction ratio) recorded for "CC(C)(O)c1csc(C(=O)c2c[nH]c3ccccc23)n1" is above or exactly 60%.
OUT: NOT MET

----------
Test: Hepatocyte intrinsic clearance assay (metabolic stability), rat hepatocytes
Type: in vitro ADME
Settings: rat, cryopreserved hepatocytes, Rat Hepatocytes, 1 μM test compound
OBSERVATION TYPE: half-life at 1 μM
Report the figure along with its unit, number first.

See these solved cases before continuing.
NC1(c2csc(C(=O)c3c[nH]c4cc(F)ccc34)n2)CC1 :: 30 min
O=C(c1nc([C@@H](O)C(F)(F)F)cs1)c1c[nH]c2cc(F)ccc12 :: 216 min
CC(C)(O)c1csc(C(=O)c2c[nH]c3ccccc23)n1 :: 54 min
O=C(c1nc(C2(O)CC2)cs1)c1c[nH]c2cc(F)ccc12 :: 126 min

So, "CC[C@H](O)c1nc(C(=O)c2c[nH]c3cc(F)ccc23)cs1" ? Its half-life at 1 μM was 48 min

// field: half-life at 1 μM; key: "N[C@H](c1csc(C(=O)c2c[nH]c3cc(F)ccc23)n1)C(F)(F)F" ; value = 30 min

Summary for this compound, "CC[C@H](N)c1csc(C(=O)c2c[nH]c3cc(F)ccc23)n1" : half-life at 1 μM is 168 min

Just so you know, measured half-life at 1 μM for "CC[C@H](O)c1csc(C(=O)c2c[nH]c3ccc(F)cc23)n1" came out at 36 min

// half-life at 1 μM lookup, compound = "CC(C)(N)c1csc(C(=O)c2c[nH]c3cc(F)ccc23)n1" , result: 108 min

----------
Assay: In vivo pharmacokinetic studies in mice
Parameters: species or system Balb/C mice
Details: mouse, plasma; Balb/C mice, single dose PO 10 mg/kg
OBSERVATION TYPE: Tmax (h)
Give the value, in units of h, as a plain number.

Note to self: Tmax recorded for "CC[C@H](N)c1csc(C(=O)c2c[nH]c3cc(F)ccc23)n1" was 2

----------
Assay: Hepatocyte intrinsic clearance assay (metabolic stability), human hepatocytes
Assay type: in vitro ADME
Settings: male, human, cryopreserved pooled hepatocytes, Human Hepatocytes, 1 μM test compound
OBSERVATION TYPE: half-life at 1 μM (min)
Report as a plain number; the unit min is understood.

N[C@H](c1csc(C(=O)c2c[nH]c3ccccc23)n1)C(F)(F)F [ARI-228] :: 12
CC(C)(O)c1csc(C(=O)c2c[nH]c3ccccc23)n1 [ARI-215] :: 36
CCC(C)(O)c1csc(C(=O)c2c[nH]c3cc(F)ccc23)n1 (stereo not shown) [ARI209] :: 48
N[C@@H](c1csc(C(=O)c2c[nH]c3ccccc23)n1)C(F)(F)F [ARI-229] :: 138
NC1(c2csc(C(=O)c3c[nH]c4cc(F)ccc34)n2)CC1 [ARI-225] :: 138
CC[C@@H](O)c1csc(C(=O)c2c[nH]c3ccc(F)cc23)n1 [ARI-195] :: 36
O=C(c1nc(C2(O)CC2)cs1)c1c[nH]c2cc(F)ccc12 [ARI-221] :: 30
CC[C@H](O)c1csc(C(=O)c2c[nH]c3ccc(F)cc23)n1 [ARI-194] :: 36
CC[C@H](N)c1csc(C(=O)c2c[nH]c3ccc(F)cc23)n1 [ARI-218] :: 78

Shift focus to the following entry.
The measured half-life at 1 μM associated with CC(C)(N)c1csc(C(=O)c2c[nH]c3cc(F)ccc23)n1 [ARI-226] reads 180

----------
Assay: In vivo pharmacokinetic studies in mice
Set-up: species or system Balb/C mice
Conditions: Balb/C, mouse, plasma; mice, single 40 mg/kg oral dose, from mean profile
OBSERVATION TYPE: Tmax
# include the unit after the value

Briefly, Tmax measured for CC[C@H](O)c1csc(C(=O)c2c[nH]c3cc(F)ccc23)n1 [ARI-164] : 30 min

----------
Test: In vivo pharmacokinetic studies in rats
Design: species or system SD rats
Details: Sprague-Dawley (SD), rat, plasma, po, 10 mg/kg, rats, PO 10 mg/kg repeat dose, Day 5, Mean of 3 animals
OBSERVATION TYPE: MRT inf

Recorded result, "CC(C)(N)c1csc(C(=O)c2c[nH]c3cc(F)ccc23)n1" , MRT inf: 3.01 h

----------
Assay: In vivo pharmacokinetic studies in mice
Set-up: species or system Balb/C mice
Details: mouse, plasma; Balb/C mice, single dose PO 40 mg/kg; read-out: AUClast
OBSERVATION TYPE: AUC(0-t) (ng·h/mL)
# output: bare number, implied unit ng·h/mL

// field: AUC(0-t); key: "CC[C@H](N)c1csc(C(=O)c2c[nH]c3cc(F)ccc23)n1" ; value = 73900

----------
Assay: In vivo pharmacokinetic studies in rats
Design: species or system SD rats
Details: SD, rat, plasma, iv, 2 mg/kg, rats, single 2 mg/kg IV dose, individual animal
OBSERVATION TYPE: MRT last (min)
The reply should be a number in min, with the unit left off.

Reported MRT last for "CC[C@@H](O)c1csc(C(=O)c2c[nH]c3cc(F)ccc23)n1" was 47.4
